Tested on: Rattus norvegicus
ASSAY_TEXT: Stimulation of cumulative food intake per 100 g body weight in Sprague-Dawley rat at 160 ug/kg, sc at 6 hrs
Assay type: functional
QUANTITY_KIND: Activity
# output: numeric value plus its unit

Example entries begin here.
STRUCTURE_SMILES | Activity
COc1ccc(Cn2c(Cc3ccccc3)nnc2[C@@H](Cc2c[nH]c3ccccc23)NC(=O)C(C)(C)N)cc1 | 0.17 g
CC(C)(N)C(=O)N[C@H](Cc1c[nH]c2ccccc12)c1nnc(CCCc2c[nH]c3ccccc23)n1Cc1ccccc1 | 0.01 g
CC(C)(N)C(=O)N[C@H](Cc1c[nH]c2ccccc12)c1nnc(CCCc2c[nH]c3ccccc23)n1CCc1ccccc1 | 0.75 g

Now examine the next entry.
Request: Please indicate Activity recorded for COc1ccccc1Cn1c(CCc2ccccc2)nnc1[C@@H](Cc1c[nH]c2ccccc12)NC(=O)C(C)(C)N
Response: 0.29 g

* * *

Test system: Rattus norvegicus
ASSAY_TEXT: Stimulation of cumulative food intake in Sprague-Dawley rat at 160 ug/kg, sc at 6 hrs relative to 80 ug/kg hexarelin
Type: functional
QUANTITY_KIND: Activity (%)
Numbers only, in %.

For each entry beneath this line, provide reported Activity.
1. Cc1ccc(Cn2c(CCCc3ccccc3)nnc2[C@@H](Cc2c[nH]c3ccccc23)NC(=O)C(C)(C)N)cc1
2. CC(C)(N)C(=O)N[C@H](Cc1c[nH]c2ccccc12)c1nnc(CCc2c[nH]c3ccccc23)n1Cc1ccc(Cl)c(Cl)c1
3. CC(C)(N)C(=O)N[C@H](Cc1c[nH]c2ccccc12)c1nnc(CCc2c[nH]c3ccccc23)n1Cc1ccccc1
4. CC(C)(N)C(=O)N[C@H](Cc1c[nH]c2ccccc12)c1nnc(CCCc2c[nH]c3ccccc23)n1CCc1c[nH]c2ccccc12
5. COc1ccc(Cn2c(CCc3c[nH]c4ccccc34)nnc2[C@@H](Cc2c[nH]c3ccccc23)NC(=O)C(C)(C)N)c(OC)c1
6. CC(C)(N)C(=O)N[C@H](Cc1c[nH]c2ccccc12)c1nnc(CCCc2c[nH]c3ccccc23)n1Cc1ccccc1
7. CC(C)(N)C(=O)N[C@H](Cc1c[nH]c2ccccc12)c1nnc(CCCc2c[nH]c3ccccc23)n1CCc1ccccc1

Response:
[-55, -45, -4, 54, -63, -97, -21]

* * *

TARGET_OF_ASSAY: Growth hormone secretagogue receptor type 1 (Homo sapiens)
ASSAY_TEXT: Activity at human GHS1a receptor expressed in CHO cells assessed as intracellular calcium mobilization relative to 0.1 uM ghrelin
Type: functional, cell-based
Consider the following compounds; for each one, report its Activity.
One number for each entry, in %.

For each entry beneath this line, provide reported Activity.
1. COc1ccc(CCn2c(CCc3ccccc3)nnc2[C@@H](Cc2c[nH]c3ccccc23)NC(=O)C(C)(C)N)cc1
2. Cc1ccc(Cn2c(CCc3c[nH]c4ccccc34)nnc2[C@@H](Cc2c[nH]c3ccccc23)NC(=O)C(C)(C)N)cc1
3. CCCCCCn1c(Cc2ccccc2)nnc1[C@@H](Cc1c[nH]c2ccccc12)NC(=O)C(C)(C)N
4. CC(C)(N)C(=O)N[C@H](Cc1c[nH]c2ccccc12)c1nnc(CCc2c[nH]c3ccccc23)n1Cc1cccc2ccccc12

Response:
[82, 69, 67, 54]

* * *

TARGET_OF_ASSAY: Growth hormone secretagogue receptor type 1 (Homo sapiens)
ASSAY_TEXT: Activity at human GHS1a receptor expressed in CHO cells assessed as intracellular calcium mobilization relative to 0.1 uM ghrelin
Type: functional, cell-based
QUANTITY_KIND: Activity (%)
Answers are plain numbers, in %.

STRUCTURE_SMILES | Activity, %
CC(C)(N)C(=O)N[C@H](Cc1c[nH]c2ccccc12)c1nnc(Cc2ccccc2)n1CC(c1ccccc1)c1ccccc1 | 60

For each entry beneath this line, provide reported Activity.
1. CC(C)(N)C(=O)N[C@H](Cc1c[nH]c2ccccc12)c1nnc(CCc2ccccc2)n1Cc1ccccn1
2. COc1ccccc1Cn1c(CCc2c[nH]c3ccccc23)nnc1[C@@H](Cc1c[nH]c2ccccc12)NC(=O)C(C)(C)N
3. COc1ccc(Cn2c(CCc3ccccc3)nnc2[C@@H](Cc2c[nH]c3ccccc23)NC(=O)C(C)(C)N)cc1

Response:
1. 59
2. 50
3. 0

* * *

Consider the following compounds; for each one, report its Activity.
TARGET_OF_ASSAY: Growth hormone secretagogue receptor type 1 (Homo sapiens, UniProt Q92847)
Sequence (Q92847 whole entry): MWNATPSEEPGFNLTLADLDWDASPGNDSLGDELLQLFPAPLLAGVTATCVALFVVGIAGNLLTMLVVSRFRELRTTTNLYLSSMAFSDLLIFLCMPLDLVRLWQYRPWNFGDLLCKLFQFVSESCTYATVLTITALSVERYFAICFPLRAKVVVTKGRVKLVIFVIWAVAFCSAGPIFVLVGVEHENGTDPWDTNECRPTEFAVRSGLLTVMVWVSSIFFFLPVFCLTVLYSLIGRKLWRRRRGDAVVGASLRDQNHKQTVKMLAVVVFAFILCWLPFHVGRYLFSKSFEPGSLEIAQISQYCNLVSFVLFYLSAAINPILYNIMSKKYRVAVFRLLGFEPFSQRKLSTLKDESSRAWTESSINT
ASSAY_TEXT: Activity at human GHS1a receptor expressed in CHO cells assessed as intracellular calcium mobilization relative to 0.1 uM ghrelin
Format: functional, cell-based
Numbers only, in %.

STRUCTURE_SMILES | TARGET_OF_ASSAY | Activity, %
CC(C)(N)C(=O)N[C@H](Cc1c[nH]c2ccccc12)c1nnc(CCc2ccccc2)n1CCc1ccccc1 | Growth hormone secretagogue receptor type 1 (Homo sapiens, UniProt Q92847) | 63

For each entry beneath this line, provide reported Activity.
1. CC(C)(N)C(=O)N[C@H](Cc1c[nH]c2ccccc12)c1nnc(Cc2ccccc2)n1Cc1ccc(Br)cc1
2. CC(C)(N)C(=O)N[C@H](Cc1c[nH]c2ccccc12)c1nnc(CCc2ccccc2)n1Cc1ccc([N+](=O)[O-])cc1
3. CC(C)(N)C(=O)N[C@H](Cc1c[nH]c2ccccc12)c1nnc(CCCc2c[nH]c3ccccc23)n1Cc1ccc(Br)cc1

Response:
16
10
25

For each entry beneath this line, provide reported Activity.
1. COc1ccccc1Cn1c(CCc2ccccc2)nnc1[C@@H](Cc1c[nH]c2ccccc12)NC(=O)C(C)(C)N
2. COc1ccc(Cn2c(Cc3ccccc3)nnc2[C@@H](Cc2c[nH]c3ccccc23)NC(=O)C(C)(C)N)c(OC)c1

Response:
80
0

* * *

Consider the following compounds; for each one, report its Activity.
TARGET_OF_ASSAY: Growth hormone secretagogue receptor type 1 (Homo sapiens, UniProt Q92847)
ASSAY_TEXT: Activity at human GHS1a receptor expressed in CHO cells assessed as intracellular calcium mobilization relative to 0.1 uM ghrelin
Type: functional, cell-based
Numbers only, in %.

Example entries begin here.
STRUCTURE_SMILES | DISPLAY_UNIT | RESULT
Cc1ccc(Cn2c(CCCc3ccccc3)nnc2[C@@H](Cc2c[nH]c3ccccc23)NC(=O)C(C)(C)N)cc1 | % | 16
COc1ccccc1Cn1c(Cc2ccccc2)nnc1[C@@H](Cc1c[nH]c2ccccc12)NC(=O)C(C)(C)N | % | 66
CC(C)(N)C(=O)N[C@H](Cc1c[nH]c2ccccc12)c1nnc(CCc2c[nH]c3ccccc23)n1Cc1ccc(Br)cc1 | % | 27
COc1ccc(Cn2c(Cc3ccccc3)nnc2[C@@H](Cc2c[nH]c3ccccc23)NC(=O)C(C)(C)N)cc1 | % | 0
CC(C)(N)C(=O)N[C@H](Cc1c[nH]c2ccccc12)c1nnc(Cc2ccccc2)n1CCc1ccccc1 | % | 85
COc1ccc(Cn2c(Cc3c[nH]c4ccccc34)nnc2[C@@H](Cc2c[nH]c3ccccc23)NC(=O)C(C)(C)N)cc1 | % | 0

For each entry beneath this line, provide reported Activity.
1. CC(C)(N)C(=O)N[C@H](Cc1c[nH]c2ccccc12)c1nnc(CCc2ccccc2)n1Cc1ccc(Cl)c(Cl)c1
2. CC(C)(N)C(=O)N[C@H](Cc1c[nH]c2ccccc12)c1nnc(Cc2ccccc2)n1Cc1ccccn1

Response:
53
78

For each entry beneath this line, provide reported Activity.
1. CCCCCCn1c(CCCc2c[nH]c3ccccc23)nnc1[C@@H](Cc1c[nH]c2ccccc12)NC(=O)C(C)(C)N
2. COc1cc(Cn2c(CCc3c[nH]c4ccccc34)nnc2[C@@H](Cc2c[nH]c3ccccc23)NC(=O)C(C)(C)N)cc(OC)c1
3. COc1ccc(Cn2c(CCCc3ccccc3)nnc2[C@@H](Cc2c[nH]c3ccccc23)NC(=O)C(C)(C)N)cc1
4. CC(C)(N)C(=O)N[C@H](Cc1c[nH]c2ccccc12)c1nnc(CCc2ccccc2)n1Cc1cccs1
5. CC(C)(N)C(=O)N[C@H](Cc1c[nH]c2ccccc12)c1nnc(CCc2c[nH]c3ccccc23)n1CCc1c[nH]c2ccccc12

Response:
1. 32
2. 22
3. 0
4. 91
5. 82

For each entry beneath this line, provide reported Activity.
1. CC(C)(N)C(=O)N[C@H](Cc1c[nH]c2ccccc12)c1nnc(CCc2c[nH]c3ccccc23)n1Cc1ccc(F)cc1
2. COc1cccc(Cn2c(CCCc3c[nH]c4ccccc34)nnc2[C@@H](Cc2c[nH]c3ccccc23)NC(=O)C(C)(C)N)c1
3. CC(C)(N)C(=O)N[C@H](Cc1c[nH]c2ccccc12)c1nnc(Cc2ccccc2)n1CCc1c[nH]c2ccccc12

Response:
1: 59; 2: 66; 3: 95

Request: Please indicate Activity recorded for CC(C)(N)C(=O)N[C@H](Cc1c[nH]c2ccccc12)c1nnc(CCCc2c[nH]c3ccccc23)n1Cc1cccc2ccccc12
Response: 62

Sourced from ChEMBL document CHEMBL1143012
